Hello, the source for this data is BindingDB's records for doi:10.1016/j.bmcl.2019.05.020, in case you need it.

Overview of reported IC50 across a group of molecules:
# TARGET UNDER TEST: UniProt P05067
# Sequence (P05067 whole entry): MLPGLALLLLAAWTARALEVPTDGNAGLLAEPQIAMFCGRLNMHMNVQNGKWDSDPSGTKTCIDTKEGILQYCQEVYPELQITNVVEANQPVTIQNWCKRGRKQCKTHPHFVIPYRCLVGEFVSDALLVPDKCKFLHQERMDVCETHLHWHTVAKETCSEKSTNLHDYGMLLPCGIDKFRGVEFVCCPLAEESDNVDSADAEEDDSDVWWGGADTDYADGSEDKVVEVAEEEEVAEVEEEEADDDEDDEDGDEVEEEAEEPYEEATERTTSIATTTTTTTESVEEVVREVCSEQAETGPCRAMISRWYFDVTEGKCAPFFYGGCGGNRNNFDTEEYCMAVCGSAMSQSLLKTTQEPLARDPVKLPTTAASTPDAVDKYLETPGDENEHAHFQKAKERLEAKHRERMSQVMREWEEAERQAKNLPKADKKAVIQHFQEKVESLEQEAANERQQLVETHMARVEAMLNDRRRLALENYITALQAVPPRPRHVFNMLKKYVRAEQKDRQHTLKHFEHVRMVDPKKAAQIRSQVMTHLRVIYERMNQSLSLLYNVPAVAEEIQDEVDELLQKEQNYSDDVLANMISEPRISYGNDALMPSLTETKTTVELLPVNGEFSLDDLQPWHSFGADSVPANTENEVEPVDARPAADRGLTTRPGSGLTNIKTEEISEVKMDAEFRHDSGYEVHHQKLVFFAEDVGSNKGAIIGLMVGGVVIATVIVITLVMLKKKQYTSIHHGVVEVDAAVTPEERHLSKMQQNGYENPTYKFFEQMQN
# ASSAY COMMENT: Inhibition of human amyloid beta (1 to 40) assessed as reduction in aggregation measured after 24 hrs by ThT fluorescence assay

[
  {
    "STRUCTURE STRING": "COc1ccc(-c2cc(=O)c3c(O)cc(OC)c(-c4cc(-c5cc(O)c6c(=O)cc(OC)cc-6o5)ccc4OC)c3o2)cc1",
    "IC50": "> 50 µM"
  },
  {
    "STRUCTURE STRING": "COc1ccc(-c2cc(=O)c3c(O)cc(O)c(-c4cc(-c5cc(O)c6c(=O)cc(O)cc-6o5)ccc4O)c3o2)cc1",
    "IC50": "4.9 µM"
  },
  {
    "STRUCTURE STRING": "COc1ccc(-c2cc(=O)c3c(O)cc(OC)c(-c4cc(-c5cc(O)c6c(=O)cc(O)cc-6o5)ccc4OC)c3o2)cc1",
    "IC50": "> 50 µM"
  }
]
